# target.desc: UniProt O00519
# Sequence (O00519 whole entry): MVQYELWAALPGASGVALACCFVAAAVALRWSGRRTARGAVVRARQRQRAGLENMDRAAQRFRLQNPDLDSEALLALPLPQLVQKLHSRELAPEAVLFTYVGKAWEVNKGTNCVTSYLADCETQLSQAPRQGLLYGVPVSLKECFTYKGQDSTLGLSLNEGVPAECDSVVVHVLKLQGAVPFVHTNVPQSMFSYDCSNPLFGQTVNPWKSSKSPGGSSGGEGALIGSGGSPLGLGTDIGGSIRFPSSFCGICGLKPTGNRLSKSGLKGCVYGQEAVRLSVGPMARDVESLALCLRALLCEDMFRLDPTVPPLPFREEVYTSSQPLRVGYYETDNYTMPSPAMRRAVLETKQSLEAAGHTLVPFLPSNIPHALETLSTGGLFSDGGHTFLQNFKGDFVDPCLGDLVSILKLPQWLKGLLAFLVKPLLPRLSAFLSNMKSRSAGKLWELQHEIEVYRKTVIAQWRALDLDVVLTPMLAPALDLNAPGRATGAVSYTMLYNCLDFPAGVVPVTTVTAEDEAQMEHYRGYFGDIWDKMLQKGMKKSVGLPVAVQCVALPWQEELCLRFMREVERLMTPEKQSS
# method: Screening for an FAAH activity-inhibiting substance with human bladder epithelial cancer-derived cell line 5637 cells (IC50)
# reported.conditions: FAAH activity in human bladder epithelial cancer-derived 5637 cells, 37° C., 30 minutes
pIC50: −log10 of the molar value. Where a name gives a salt, the structure may show the parent alone.
quantity.kind: pIC50

Consider the reported pIC50 for these compounds:
INSERT INTO results (compound, numeric_value) VALUES
  ('O=C(c1ccc(OCc2cccc(F)c2)cc1)N1CCN(C(=O)n2ccnc2)CC1', 9.80),
  ('COCC(=O)NC(=O)N1CCN(Cc2cccc(OCCC3CCCCC3)c2)CC1', 9.37),
  ('CC(=O)Nc1ccc(NC(=O)N2CCN(C(=O)c3cccc(OCCC4CCCCC4)c3)CC2)cn1', 9.68);

[a] O=C(Nc1cccnc1)N1CCN(Cc2ccnc(OCCC3CCCCC3)c2)CC1 [Example 30, trihydrochloride]
[b] O=C(Nc1cccnc1)N1CCC(Oc2ccc(OCc3cccc(F)c3)cc2)CC1 [Example 1, hydrochloride]
In: Of a versus b , which is the one with smaller reported pIC50? Let me know the label of the one you choose.
Out: b
(b: 8.25, a: 9.55)
